Origin of values: patent EP4700040A1

TARGET_UNDER_TEST: Large subunit-rSCFV5 fusion protein
Sequence (chain, as listed by the source): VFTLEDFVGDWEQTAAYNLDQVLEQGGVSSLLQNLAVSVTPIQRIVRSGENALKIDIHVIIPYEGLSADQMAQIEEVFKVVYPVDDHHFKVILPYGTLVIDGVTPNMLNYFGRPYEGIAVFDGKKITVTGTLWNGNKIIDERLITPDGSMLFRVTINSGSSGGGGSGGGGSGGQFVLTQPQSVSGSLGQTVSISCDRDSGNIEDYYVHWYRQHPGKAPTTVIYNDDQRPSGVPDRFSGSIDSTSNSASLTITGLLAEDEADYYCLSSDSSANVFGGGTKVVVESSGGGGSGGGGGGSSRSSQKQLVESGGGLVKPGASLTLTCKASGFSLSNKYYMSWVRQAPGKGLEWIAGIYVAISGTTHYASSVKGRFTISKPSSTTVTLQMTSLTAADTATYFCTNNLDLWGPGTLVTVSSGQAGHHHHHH
RUN_DESCRIPTION: cell-based or functional assay
MEASUREMENT_LABEL: Signal-to-noise ratio

| BINDER | REPORTED_RESULT |
| --- | --- |
| VSGYRLFDRKS (peptide, part only; not given: rSCFV18 scFv part, part only) [rSCFV18-small subunit mutant fusion protein RC-228] | 5.4 |
| VEGYRLFDRVW (peptide, part only; not given: rSCFV18 scFv part, part only) [rSCFV18-small subunit mutant fusion protein RB128] | 38.8 |
| VEGYRLFKREL (peptide, part only; not given: rSCFV18 scFv part, part only) [rSCFV18-small subunit mutant fusion protein RB152] | 40 |

[a] VEGYRLFERVL (peptide, part only; not given: rSCFV18 scFv part, part only) [rSCFV18-small subunit mutant fusion protein RB150]
[b] VSGYRLFDKKW (peptide, part only; not given: rSCFV18 scFv part, part only) [rSCFV18-small subunit mutant fusion protein RC-261]
[c] VEGYRLFNRVG (peptide, part only; not given: rSCFV18 scFv part, part only) [rSCFV18-small subunit mutant fusion protein RB122]
[d] VEGYRLFDRKS (peptide, part only; not given: rSCFV18 scFv part, part only) [rSCFV18-small subunit mutant fusion protein RC-218]
[e] VDGWRLHEKIS (peptide, part only; not given: rSCFV18 scFv part, part only) [rSCFV18-small subunit mutant fusion protein RA141]
Rank the 5 binders: largest Signal-to-noise ratio first, smallest last. Lab note: record answer as labels in requested order.
e, a, c, d, b
(e: 65.1, a: 32.1, c: 20.2, d: 7.9, b: 4.5)
